From: paper PMC5608908

Listing of entries alongside the reported Hill Slope.
system.tested: Cruzipain (Trypanosoma cruzi, UniProt P25779)
Construct: Cruzipain (CZP) was purified to homogeneity from epimastigotes of the Tul 2 strain; from tissue; host or cells: Trypanosoma cruzi epimastigotes, Tul 2 strain (natural enzyme, not recombinant)
Sequence (P25779 123-467): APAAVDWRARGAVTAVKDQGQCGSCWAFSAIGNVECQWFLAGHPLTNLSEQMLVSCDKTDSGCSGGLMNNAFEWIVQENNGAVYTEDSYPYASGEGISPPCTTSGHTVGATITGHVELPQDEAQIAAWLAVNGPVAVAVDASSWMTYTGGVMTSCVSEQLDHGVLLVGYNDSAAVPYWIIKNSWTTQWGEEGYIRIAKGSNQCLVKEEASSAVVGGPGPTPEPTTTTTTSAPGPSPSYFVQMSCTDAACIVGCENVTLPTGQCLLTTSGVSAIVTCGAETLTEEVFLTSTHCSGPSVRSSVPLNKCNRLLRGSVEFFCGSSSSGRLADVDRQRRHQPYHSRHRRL
assay.explanation: biochemical
condition.summary: four-parameter Hill fit of dose-response curve, Cruzipain 11.6 nM

Guide cases for Hill Slope, answers given:
[
  {
    "compound": "CC(C)C[C@H](NC(=O)c1ccc(-c2ccccc2)o1)C(=O)NC1(C#N)CC1 [TCMDC-143393]",
    "system.tested": "Cruzipain (Trypanosoma cruzi, UniProt P25779)",
    "reported.measurement": "−0,957"
  },
  {
    "compound": "COc1ccc2ncc(Cl)c(CCN3CCC(NCc4cc5c(cn4)OCS5)C(O)C3)c2n1 (stereo not drawn) [TCMDC-143513]",
    "system.tested": "Cruzipain (Trypanosoma cruzi, UniProt P25779)",
    "reported.measurement": "−0,8108"
  },
  {
    "compound": "COc1cc(OC)cc(C(=O)N[C@@H](CC(C)C)C(=O)NC2(C#N)CC2)c1 [TCMDC-143390]",
    "system.tested": "Cruzipain (Trypanosoma cruzi, UniProt P25779)",
    "reported.measurement": "−0,9354"
  },
  {
    "compound": "COc1ccc(OC)c(S(=O)(=O)N(Cc2c(F)cccc2F)C2CCN(C#N)C2)c1 (stereo not drawn) [TCMDC-143370]",
    "system.tested": "Cruzipain (Trypanosoma cruzi, UniProt P25779)",
    "reported.measurement": "−0,7542"
  },
  {
    "compound": "COc1cc(F)c2ncc(F)c(CCN3CC[C@H](NCc4cc5c(cn4)OCS5)[C@@H](O)C3)c2c1 [TCMDC-143510]",
    "system.tested": "Cruzipain (Trypanosoma cruzi, UniProt P25779)",
    "reported.measurement": "−0,7998"
  }
]

Please examine the following record next.
Qu. Report Hill Slope for NC(N)=Nc1nc(-c2ccc(NC(N)=NCCN3CCCC3)cc2)cs1 [TCMDC-143640] tested on Cruzipain (Trypanosoma cruzi, UniProt P25779).
Ans. −0,9825

* * *

system.tested: Cruzipain (Trypanosoma cruzi, UniProt P25779)
Construct: Cruzipain (CZP) was purified to homogeneity from epimastigotes of the Tul 2 strain
assay.explanation: biochemical
condition.summary: Cruzipain 11.6 nM, Z-FR-AMC 2 μM, pH 5.5, 30 °C, 15 min preincubation; four-parameter Hill fit
pIC50: −log10 of the molar value.
reported.endpoint: pIC50

The following molecules have reported results that may help.
[
  {
    "molecule": "NC(N)=Nc1nc(-c2ccc(NC(N)=NCCN3CCCC3)cc2)cs1 [TCMDC-143640]",
    "pIC50": 2.47
  },
  {
    "molecule": "CC(C)C[C@H](NC(=O)c1ccc(-c2ccccc2)o1)C(=O)NC1(C#N)CC1 [TCMDC-143393]",
    "pIC50": 7.52
  },
  {
    "molecule": "COc1ccc(OC)c(S(=O)(=O)N(Cc2c(F)cccc2F)C2CCN(C#N)C2)c1 (stereo not drawn) [TCMDC-143370]",
    "pIC50": 2.25
  },
  {
    "molecule": "COc1cc(F)c2ncc(F)c(CCN3CC[C@H](NCc4cc5c(cn4)OCS5)[C@@H](O)C3)c2c1 [TCMDC-143510]",
    "pIC50": 4.79
  }
]

[A] COc1ccc2ncc(Cl)c(CCN3CCC(NCc4cc5c(cn4)OCS5)C(O)C3)c2n1 (stereo not drawn) [TCMDC-143513]
[B] COc1cc(OC)cc(C(=O)N[C@@H](CC(C)C)C(=O)NC2(C#N)CC2)c1 [TCMDC-143390]
Qu. Of A and B , whose reported pIC50 is the larger number? Identify your selection by its label.
Ans. B
